Data provenance: the supplement of paper PMC10266784

# Lookup of reported SGCB cell-surface expression functional score (log10) keyed by entry
B1: library; numbered along this chain (parent)
chain: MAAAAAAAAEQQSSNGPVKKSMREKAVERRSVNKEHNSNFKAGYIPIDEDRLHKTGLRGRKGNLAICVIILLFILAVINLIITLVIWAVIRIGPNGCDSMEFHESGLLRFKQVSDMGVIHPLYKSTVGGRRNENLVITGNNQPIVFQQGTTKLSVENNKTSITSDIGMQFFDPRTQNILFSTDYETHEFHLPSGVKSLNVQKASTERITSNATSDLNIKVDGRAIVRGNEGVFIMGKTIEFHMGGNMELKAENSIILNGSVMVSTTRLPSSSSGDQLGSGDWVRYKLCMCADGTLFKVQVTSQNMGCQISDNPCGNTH

Variants of: B1
Assay: SGCB cell-surface expression functional score (HA stain, bin4 vs bin1, normalised to synonymous) (log10 ratio); higher = more cell-surface SGCB (functional)
// keep it numeric: no unit symbol after the value

[[record]]
variant_description = "H103Y"
measured_result = -0.3

[[record]]
variant_description = "N33C"
measured_result = -0.01

[[record]]
variant_description = "K286D"
measured_result = -1.17

[[record]]
variant_description = "C288I"
measured_result = -0.55

[[record]]
variant_description = "L153W"
measured_result = -1.15

[[record]]
variant_description = "L249Y"
measured_result = 0.23

[[record]]
variant_description = "K196D"
measured_result = -2.29

[[record]]
variant_description = "E10M"
measured_result = -0.03


Prompt line: Name the reported SGCB cell-surface expression functional score (log10) value associated with the variant T138M
Response line: 0.02

Prompt line: And for T186K ?
Response line: 0.28

Prompt line: And for R109I ?
Response line: -0.04

Prompt line: And for W282I ?
Response line: 0.19

Prompt line: And for N37D ?
Response line: -0.35

Prompt line: And for P143Y ?
Response line: -0.63

Prompt line: And for D50G ?
Response line: 0.3

Prompt line: And for N39A ?
Response line: -0.05

Prompt line: And for V89M ?
Response line: -0.96

Prompt line: And for Q169C ?
Response line: -1.24

Prompt line: And for I47C ?
Response line: 0.31

Prompt line: And for A2V ?
Response line: 0.12

Prompt line: And for N95I ?
Response line: -0.83

Prompt line: And for K219N ?
Response line: -0.17
